# Lookup of reported kon keyed by entry
# ASSAY SYSTEM: canine IL-31 (Canine_IL31) (canine)
# Sequence (chain, as listed by the source limits assumed, form in doubt): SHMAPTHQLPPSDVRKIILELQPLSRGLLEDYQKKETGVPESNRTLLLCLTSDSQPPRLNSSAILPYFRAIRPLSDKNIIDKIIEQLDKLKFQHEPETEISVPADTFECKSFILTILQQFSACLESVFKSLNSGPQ
# TEST DETAILS: SPR (Biacore), immobilised IL-31, 1:1 fit
The reply should be a number in M⁻¹ s⁻¹, with the unit left off.

Some entries whose results are on file:
{"columns": ["BINDER", "OUTPUT UNIT", "kon"],
 "data": [
  ["mouse anti IL-31 antibody 15H05 (antibody, V domains shown) VH: QVQLQQSAAELARPGASVKMSCKTSGYTFTSYTIHWIKQRPGQGLEWIGNINPTSGYTENNQRFKDKTTLTVDRSSNTAYLQLHSLTSEDSAVYFCARWGFKYDGEWSFDVWGAGTTVTVSS VL: DIQMNQSPSSLSASLGDTITVTCRASQGISIWLSWYQQKPGNIPKVLINKASNLHIGVPPRFSGSGSGTHFTLTITSLQPEDIATYYCLQSQTYPLTFGGGTKLEIN", "M⁻¹ s⁻¹", 135000],
  ["Feline 15H05_VH1 mouse VL (antibody, V domains shown) VH: QVLLVQSGAEVRTPGASVKIFCKASGYSFTSYTIHWLRQAPAQGLEWMGNINPTSGYTENNQRFKDRLTLTADTSTNTAYMELSSLRSADTAMYYCARWGFKYDGEWSFDVWGAGTTVTVSS VL: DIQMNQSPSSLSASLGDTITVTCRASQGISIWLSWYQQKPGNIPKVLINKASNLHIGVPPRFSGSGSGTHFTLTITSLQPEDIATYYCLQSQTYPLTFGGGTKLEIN", "M⁻¹ s⁻¹", 108000],
  ["Feline 15H05 3.1 (antibody, V domains shown) VH: QVLLVQSGAEVRKPGASVKIFCKASGYSFTSYTIHWLRQAPEQGLEWMGNINPTSGYTENNQRFKDRLTLTADTSTNTAYMELSSLRSADTAMYYCARWGFKYDGEWSFDVWGAGTTVTVSS VL: EIQMTQSPSSLSASPGDRVTITCRASQGISIWLSWYQQKPGKVPKLLIYKASNLHIGVPSRFSGSGSGTDFTLTISSLEPEDAATYYCLQSQTYPLTFGGGTKLEIK", "M⁻¹ s⁻¹", 26500],
  ["Feline 15H05_VH3 mouse VL (antibody, V domains shown) VH: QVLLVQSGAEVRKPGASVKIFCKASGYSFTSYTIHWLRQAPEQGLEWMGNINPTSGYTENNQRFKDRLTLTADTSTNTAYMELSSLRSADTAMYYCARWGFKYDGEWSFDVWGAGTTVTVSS VL: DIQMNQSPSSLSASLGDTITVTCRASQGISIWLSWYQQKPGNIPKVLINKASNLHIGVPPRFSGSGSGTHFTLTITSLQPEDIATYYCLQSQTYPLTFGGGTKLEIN", "M⁻¹ s⁻¹", 100000]
]}

Turning now to a further binder:
Which measured kon value corresponds to Feline 15H05 1.1 FW1_3 (antibody, V domains shown) VH: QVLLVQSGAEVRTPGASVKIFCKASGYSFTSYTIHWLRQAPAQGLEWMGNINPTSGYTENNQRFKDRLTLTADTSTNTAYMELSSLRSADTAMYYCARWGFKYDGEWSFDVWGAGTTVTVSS VL: DIQMNQSPSSLSASLGDTITVTCRASQGISIWLSWYQQKPGKVPKLLIYKASNLHIGVPPRFSGSGSGTHFTLTITSLQPEDIATYYCLQSQTYPLTFGGGTKLEIK ? 6590

The measurements presented in this section are drawn from patent US20190282704A1.
